Reference for the values: patent US20240025919A1

# target or test system: KRAS G12D (Homo sapiens (Human), UniProt P01116, G12D)
# Sequence (P01116-2 other isoform, or with tags, fused parts or gaps G12D): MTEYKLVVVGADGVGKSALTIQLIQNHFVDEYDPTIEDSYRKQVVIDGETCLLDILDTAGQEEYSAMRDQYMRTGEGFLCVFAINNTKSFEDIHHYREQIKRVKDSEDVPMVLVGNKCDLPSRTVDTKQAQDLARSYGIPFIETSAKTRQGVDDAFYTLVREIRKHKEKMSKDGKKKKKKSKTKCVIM
# assay method text: KRAS G12D LoEnz Biochemical Assay, BODIPY-GDP Exchange TR-FRET (SOS1-mediated nucleotide exchange)
# measurement setup: read-out: KRas (G12D) GDP HTRF IC50
# Description: Example 500: KRAS G12D LoEnz Biochemical Assay, BODIPY-GDP Exchange TR-FRET. Biochemical compound potencies are assessed by evaluating inhibition of SOS1I-mediated nucleotide exchange in KRAS G121D. In this assay, the SOS1-promoted exchange of fluorescently-labeled GDP (BOPIDY-GDP) is monitored by time-resolved fluorescence resonance energy transfer (TR-FRET). […] After a 120-minute incubation, the fluorescence is measured with excitation at 337 nm and emission at 490 and 520 nm. […]
pIC50: −log10 of the molar value.
pIC50 vs 9: at or above is True, below is False.

Please review the entries below; each comes with its answer.
- Cc1nc(N)cc(-c2nc3c4c(nc(OCC5(CN6CCOC(C(F)(F)F)C6)CC5)nc4c2F)N2C[C@H]4CC[C@H](N4)[C@H]2[C@H](C)O3)c1C(F)(F)F (some centres unmarked) [Compound 267]: False
- Cc1c(F)c(N)cc(-c2nc3c4c(nc(OC[C@@H]5[C@@H]6CCN5CCO6)nc4c2F)N2C[C@H]4CC[C@H](N4)[C@H]2[C@H](C)O3)c1C(F)(F)F [Compound 136]: True
- C#Cc1cccc2cc(O)cc(-c3nc4c5c(nc(OC[C@]67CCN6CC(F)(F)C7)nc5c3F)N3C[C@H]5CC[C@H](N5)[C@H]3[C@H](C)O4)c12 (single isomer, unassigned) [Compound 19]: True
- Cc1c(F)c(N)cc(-c2nc3c4c(nc(OCC5(CN6C[C@H]7C[C@@H]6CO7)CC5)nc4c2F)N2C[C@H]4CC[C@H](N4)[C@H]2[C@H](C)O3)c1C(F)(F)F [Compound 170]: True
- Cc1c(F)c(N)cc(-c2nc3c4c(nc(OCC5(CN6C[C@@H]7C[C@H]6CO7)CC5)nc4c2F)N2C[C@H]4CC[C@H](N4)[C@H]2[C@H](C)O3)c1C(F)(F)F [Compound 169]: True

Could you tell me if the measured pIC50 of C[C@@H]1Oc2nc(-c3cc(N)c(F)cc3CC(F)F)c(F)c3nc(OC[C@@]45CCCN4C[C@H](F)C5)nc(c23)N2C[C@H]3CC[C@H](N3)[C@@H]12 [Compound 187] reaches 9 or more?
True

Again, but for C#Cc1c(F)ccc2cc(O)cc(-c3nc4c5c(nc(OC[C@@]67CCCN6C[C@H](F)C7)nc5c3F)N3C[C@H]5CC[C@H](N5)[C@H]3CO4)c12 [Compound 81]
True

Also Cc1cc(N)c(F)c(-c2nc3c4c(nc(OC[C@@H]5CC[C@H]6COCCN65)nc4c2F)N2C[C@H]4CC[C@H](N4)[C@H]2[C@H](C)O3)c1C=C(F)F [Compound 99] , if possible.
False

Another compound: C[C@@H]1Oc2nc(-c3cc(N)ccc3C(C)(C)C)c(F)c3nc(OC[C@@]45CCCN4C[C@H](F)C5)nc(c23)N2C[C@H]3CC[C@H](N3)[C@@H]12 [Compound 117]
False

Record: C[C@@H]1Oc2nc(-c3nc(N)c(F)cc3C(F)(F)F)c(F)c3nc(OC[C@]45CCN4CC(F)(F)C5)nc(c23)N2C[C@H]3CC[C@H](N3)[C@@H]12 [Compound 87]
False

Input C[C@@H]1Oc2nc(-c3nc(N)c(F)cc3C(F)(F)F)c(F)c3nc(OC[C@@]45CCCN4C[C@H](F)C5)nc(c23)N2C[C@H]3CC[C@H](N3)[C@@H]12 [Compound 84]
False

Lookup Cc1c(F)c(N)c(F)c(-c2nc3c4c(nc(OC[C@@H]5C[C@@H](F)CN5C)nc4c2F)N2C[C@H]4CC[C@H](N4)[C@H]2[C@H](C)O3)c1C(F)(F)F [Compound 228]
False

# repeat for Cc1nc(N)cc(-c2nc3c4c(nc(OCC5(CN6CC[C@H]7OCC[C@H]76)CC5)nc4c2F)N2C[C@H]4CC[C@H](N4)[C@H]2[C@H](C)O3)c1C(F)(F)F [Compound 268]
True

Please answer likewise for Cc1c(F)c(N)cc(-c2nc3c4c(nc(OC[C@@H]5CC[C@@H]6C[C@@H](F)CN65)nc4c2F)N2C[C@H]4CC[C@H](N4)[C@H]2[C@H](C)O3)c1C(F)(F)F (single isomer, unassigned) [152 (isomer 2)]
False

What do you get for Cc1c(F)c(N)cc(-c2nc3c4c(nc(OCCC5(N6CCOCC6)COC5)nc4c2F)N2C[C@H]4CC[C@H](N4)[C@H]2[C@H](C)O3)c1C(F)(F)F [Compound 149] ?
False

Consider next the compound Cc1c(F)c(N)cc(-c2nc3c4c(nc(OC[C@@]56CCN5CC(F)(F)C6)nc4c2F)N2C[C@H]4CC[C@H](N4)[C@H]2[C@H](C(F)(F)F)O3)c1C(F)(F)F (single isomer, unassigned) [263 (diast. 1)] in the same way.
True

Let us now turn to Cc1c(F)c(N)cc(-c2nc3c4c(nc(OCC[C@@H]5CC[C@H]6COCCN56)nc4c2F)N2C[C@H]4CC[C@H](N4)[C@H]2[C@H](C)O3)c1C(F)(F)F [Compound 154]
True

---

# target or test system: KRAS WT (Homo sapiens (Human), UniProt P01116)
# Sequence (P01116-2 other isoform, or with tags, fused parts or gaps): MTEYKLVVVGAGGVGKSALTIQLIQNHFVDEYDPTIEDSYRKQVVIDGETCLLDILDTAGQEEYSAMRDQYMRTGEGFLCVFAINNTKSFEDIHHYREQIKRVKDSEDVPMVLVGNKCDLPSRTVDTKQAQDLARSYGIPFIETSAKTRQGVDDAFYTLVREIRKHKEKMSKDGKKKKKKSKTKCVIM
# assay method text: KRAS WT Biochemical Assay, BODIPY-GDP Exchange TR-FRET (Example 501; 3 nM KRAS WT, 3 nM SOS1, 60-minute incubation)
# measurement setup: read-out: KRas HTRF IC50
quantity measured: IC50 (nM)
# unit: nM | format: bare number

• Cc1nc(N)cc(-c2nc3c4c(nc(OC[C@@]56CCCN5C[C@H](F)C6)nc4c2F)N2C[C@H]4CC[C@H](N4)[C@H]2[C@H](C)O3)c1OC(F)F [Compound 188] = 225

Give IC50 (KRAS WT (Homo sapiens (Human), UniProt P01116)) of the following compound: Cc1nc(N)cc(-c2nc3c4c(nc(OC[C@]56CCCN5CC(F)(F)C6)nc4c2F)N2C[C@H]4CC[C@H](N4)[C@H]2[C@H](C)O3)c1C(F)(F)F [Compound 217]
242

# repeat for Cc1nc(N)c(F)c(-c2nc3c4c(nc(OCC56CCN5CC(F)(F)C6)nc4c2F)N2C[C@H]4CC[C@H](N4)[C@H]2[C@H](C)O3)c1C(F)(F)F (stereo partly drawn) [Compound 220]
149

---

# target or test system: UniProt:P01116
# assay method text: KRAS WT Biochemical Assay, BODIPY-GDP Exchange TR-FRET (Example 501; 3 nM KRAS WT, 3 nM SOS1, 60-minute incubation)
# measurement setup: read-out: KRas HTRF IC50
quantity measured: IC50 (nM)
Reply numerically in nM, unit not repeated.

* Cc1nc(N)c(F)c(-c2nc3c4c(nc(OCC5(CN6CCOCC6)CC5)nc4c2F)N2C[C@H]4CC[C@H](N4)[C@H]2[C@H](C)O3)c1C(F)(F)F | 47.3

As a next step, examine the compound that follows.
Quick one: IC50 for COC1(CF)CN(CC2(COc3nc4c5c(nc(-c6cc(N)nc(C)c6C(F)(F)F)c(F)c5n3)O[C@@H](C)[C@@H]3[C@@H]5CC[C@H](CN43)N5)CC2)C1 ?
24.4

---

IC50 reference
# target or test system: KRAS WT (Homo sapiens (Human))
# assay method text: KRAS WT Biochemical Assay, BODIPY-GDP Exchange TR-FRET (Example 502; 0.06 nM KRAS WT, 15 nM GDP, 300 nM SOS1, 120-minute incubation)
# measurement setup: read-out: KRas HTRF IC50
# unit: nM | format: bare number

Here's what some known entries look like.
• Cc1cc(N)c(Cl)c(-c2nc3c4c(nc(OC[C@@H]5CC[C@H]6COCCN65)nc4c2F)N2C[C@H]4CC[C@H](N4)[C@H]2[C@H](C)O3)c1C(F)(F)F = 224
• Cc1c(F)c(N)cc(-c2nc3c4c(nc(OCCCN5CCOCC5)nc4c2F)N2C[C@H]4CC[C@H](N4)[C@H]2[C@H](C)O3)c1C(F)(F)F = 115
• Cc1c(F)c(N)cc(-c2nc3c4c(nc(OCC5CCC6CC(F)(F)CN56)nc4c2F)N2C[C@H]4CC[C@H](N4)[C@H]2[C@H](C)O3)c1C(F)(F)F (single isomer, unassigned) [153 (isomer 1)] = 90.9
• C[C@@H]1Oc2nc(-c3c(C#N)c(N)c(F)c(F)c3C(F)(F)F)c(F)c3nc(OC[C@@]45CCCN4C[C@H](F)C5)nc(c23)N2C[C@H]3CC[C@H](N3)[C@@H]12 = 167
• Cc1c(F)c(N)cc(-c2nc3c4c(nc(OC[C@@H]5CO[C@H]6CC[N@]5C6)nc4c2F)N2C[C@H]4CC[C@H](N4)[C@H]2[C@H](C)O3)c1C(F)(F)F = 143
• C#Cc1cccc2cc(O)cc(-c3nc4c5c(nc(OC[C@@]67CCCN6C[C@H](F)C7)nc5c3F)N3C[C@H]5CC[C@H](N5)[C@H]3CO4)c12 = 0.757
• Cc1c(F)c(N)cc(-c2nc3c4c(nc(OC[C@H]5CC[C@@H]6CN(C)C(=O)CN56)nc4c2F)N2C[C@H]4CC[C@H](N4)[C@H]2[C@H](C)O3)c1C(F)(F)F (single isomer, unassigned) [131 (isomer 2)] = 293
• Cc1c(F)c(N)cc(-c2nc3c4c(nc(OCC5CC(F)C6CCCN56)nc4c2F)N2C[C@H]4CC[C@H](N4)[C@H]2[C@H](C)O3)c1C(F)(F)F (single isomer, unassigned) [Compound 160 (diast. 2)] = 22.5

API: value(readout=IC50, system=KRAS WT (Homo sapiens (Human))) for record Cc1cc(N)cc(-c2nc3c4c(nc(OC[C@@H]5CC[C@H]6COCCN65)nc4c2F)N2C[C@H]4CC[C@H](N4)[C@H]2[C@H](C)O3)c1C(F)(F)F
7.53

// next record Cc1cc(-c2nc3c4c(nc(OC[C@@]56CCCN5C[C@H](F)C6)nc4c2F)N2C[C@H]4CC[C@H](N4)[C@H]2[C@H](C)O3)c(F)c(N)n1
11700
